target_of_assay: Epidermal growth factor receptor (Homo sapiens, UniProt P00533, T790M)
Sequence (P00533 25-1210 T790M limits assumed): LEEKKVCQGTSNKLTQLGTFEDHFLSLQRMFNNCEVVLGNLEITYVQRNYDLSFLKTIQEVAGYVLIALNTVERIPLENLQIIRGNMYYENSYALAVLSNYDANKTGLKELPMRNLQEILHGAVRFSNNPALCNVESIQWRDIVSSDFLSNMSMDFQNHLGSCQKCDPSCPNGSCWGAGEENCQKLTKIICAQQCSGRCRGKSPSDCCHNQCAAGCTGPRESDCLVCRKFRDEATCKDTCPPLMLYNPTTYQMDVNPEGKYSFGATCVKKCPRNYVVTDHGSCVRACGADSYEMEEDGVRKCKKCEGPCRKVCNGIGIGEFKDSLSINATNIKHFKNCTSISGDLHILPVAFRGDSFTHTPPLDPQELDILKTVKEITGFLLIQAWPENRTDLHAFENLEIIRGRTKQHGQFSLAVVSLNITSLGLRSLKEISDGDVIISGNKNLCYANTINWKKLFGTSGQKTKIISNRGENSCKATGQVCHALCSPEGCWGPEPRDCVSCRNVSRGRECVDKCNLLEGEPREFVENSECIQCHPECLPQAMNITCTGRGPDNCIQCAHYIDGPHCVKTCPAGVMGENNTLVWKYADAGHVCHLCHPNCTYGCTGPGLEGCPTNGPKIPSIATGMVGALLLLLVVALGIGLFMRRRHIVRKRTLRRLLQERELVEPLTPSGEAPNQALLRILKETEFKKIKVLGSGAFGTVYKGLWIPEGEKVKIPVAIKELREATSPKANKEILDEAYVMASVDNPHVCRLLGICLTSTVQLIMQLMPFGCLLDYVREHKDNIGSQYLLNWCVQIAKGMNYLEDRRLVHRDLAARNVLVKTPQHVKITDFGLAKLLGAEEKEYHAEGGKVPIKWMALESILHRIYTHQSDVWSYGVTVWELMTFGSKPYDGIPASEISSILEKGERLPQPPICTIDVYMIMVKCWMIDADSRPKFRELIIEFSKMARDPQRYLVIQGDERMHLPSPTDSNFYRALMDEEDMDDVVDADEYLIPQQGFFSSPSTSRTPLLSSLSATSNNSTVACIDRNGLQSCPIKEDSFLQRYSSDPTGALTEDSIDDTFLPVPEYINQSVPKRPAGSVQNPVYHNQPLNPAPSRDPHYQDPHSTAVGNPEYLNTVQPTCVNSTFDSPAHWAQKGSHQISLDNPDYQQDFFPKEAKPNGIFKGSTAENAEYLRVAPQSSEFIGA
run_description: Competitive binding affinity to human EGFR T790M mutant in presence of immobilized ligand
measure_name: Kd (nM)
One number for each entry, in nM.

Exercise: Which Kd is reported for this compound? C=CC(=O)Nc1cccc(-n2c(=O)cc(C)c3cnc(Nc4ccc(OCCN(C)C)cc4OC)nc32)c1
Solution: 0.96

* * *

Test system: human MDR1 (P-gp)
run_description: Permeability across pig LLC-PK1 cells transfected with human MDR1 gene
Format: ADME, cell-based, Sus scrofa
condition_notes: read-out: permeability
measure_name: Papp (×10⁻⁶ cm/s)
One number for each entry, in ×10⁻⁶ cm/s.

Exercise: Short answer please: Papp, human MDR1 (P-gp), entry C=CC(=O)Nc1cccc(-n2c(=O)cc(C)c3cnc(Nc4ccc(OCCN(C)C)cc4OC)nc32)c1
Solution: 10
